experiment: 14C assay with IPTG-induced recombinant E. coli cells: 14CO2 captured from [14C]-carboxyl-labeled dicamba; conditions: induced recombinant E. coli cells, [14C]-carboxyl-labeled dicamba, 14CO2 capture
readoutName: Dicamba Decarboxylase Activity

>  <molecule>
11 (protein, Aspergillus niger) MALGKIALEEAFALPRFEEKTRWWASLFSVDPETHVKEITDINKLRIEHADKYGVGYQILSYTAPGVQDIWDPVEAQALAVEINDYIAEQIRDKPDRFGAFATLSMHNPQEAASELRRCVQTYGFKGALVNDTQRAGPDGDDMIFYDNASWDIFWQTCTELDVPLYLHPRNPTGTIYEKLWADRKWLVGPPLSFAQGVSLHVLGMVTNGVFDRHPNLQLIMGHLGEHVPFDMWRINHWFEDRKKLLGLAETCKKTIREYFAQNIWITTSGHFSTTTLNFCMAEVGVDRILFSIDYPFETFEDACVWFDGAELNLSDKAKIGRDNAARLFKLGAFRDYDAKVKA

>  <Dicamba Decarboxylase Activity>
Low

$$$$
>  <molecule>
19 (protein, listed as Talaromyces marneffei) MATPIITLEEHYISSAIRDASETDHYAVFPSQIISKLNTLSTERLQDLDNGHVSLQVISHGPGAQPPYLCQAANDELASAISANPTRFAGFALLPIAEPQLAVQELERCITQHKFVGALIDNHTNGQFYDDQKFWPVFEKAQELDAPIYVHPSYPDEESGVAAHYRGNYDDRIAAALGAYGWGWHSDTALSILRLFAAGLFDTYPNIKIIIGHMGEMLPFQLERVIGIASRFGRSRGLREVWTQNIWVTTSGMFALAPLACLLQTMPIERVLYSVDYPFSANEKGFAFLEEIKKSGLIKEGEDWERFLYKNAQELLKVNV

>  <Dicamba Decarboxylase Activity>
High

$$$$
>  <molecule>
51 (protein, listed as Mycobacterium gilvum) MARVIAIEEHYAHPGLQPAEALANLRKHPQLARIQDKLEDLGAGRLADMDAAGIDMQVLSHTVPGAEALPAAQAVDVVRQTNDDLAEVIAAHPDRFAGFAALPMRDPQAAATELQRAVGTLGFCGAMINGLIEGRFLDHPDFTPLLSTAADLGVPLYLHPSFPPPQVAQIYFGGLPPVLADLLATAGWGWHAETALHVLRLISTGVFDRLPELRVIVGHMGEMIPFALARIDTVLSPMTELRQPVAQYFQTNVWFTTSGYTTFPPLQCALSTVGIDRLIFSVDYPYTDNASARALLDTAPISPVDREKLAHATVEALLRV

>  <Dicamba Decarboxylase Activity>
High

$$$$
>  <molecule>
6 (protein, Treponema brennaborense) MAEILSPEESIYYSKLSNDILAEGIKKNPTRFRGFAALPTPDPIQAAMELERCIKLGGFVGAIINGHINGHYLDEIQFDPILEAADALDVPLYIHPAVPPKAIIDTYYKMNDTYAQTVMVSGGWGWHIETGVHVLRLISSGVFDRHPNLKIVIGHLGEGLPFFMHRLNNAIGGNLKKSYSTYLKENIYYTISGFNDPDLFQFVLKKVGENNIMFSSDYPFNFPKREVELFNELNISEEVREKISFKNAERILKI

>  <Dicamba Decarboxylase Activity>
No

$$$$
>  <molecule>
58 (protein, Mycobacterium colombiense) MARVIALEEHYATTEFLRGPGTWLASRPGIVEPAGDLGDGRIAAMDQAGVDLAVLSLAAPGVEQLDPDDAVRLARDCNDQLAAAVRRYPDRLAGFATVPTSAPDRAADELERAVRGLGFPGAVINGHSRGRYLDDPFFEPVLARAAELQAPIYLHPTIPPAGVIESSYAGFAEPVTFALATVGWGWHINTATHALRMILGGVFDRHPSLQMIIGHMGEATSFMLPRFDATLKPELTGLNHPVSSYLRENFHYTFANFNDHATYANLVAQVGIERVAFSADYPFGSMVDARAFLDGLPLSDDERAAISHRNAEKLLGL

>  <Dicamba Decarboxylase Activity>
High

$$$$

Answer with the recorded Dicamba Decarboxylase Activity for the molecule listed here: 18 (protein, listed as Legionella pneumophila) MAIVDFETHFITEACIDYLTQRQEVPKLVPELNGAYTMCFTPDVSLFHTSALMEELLSLNEQRLAIMDQAGVTIQVLSLTTINGIDSCPGDENKSTALAREVNDQLYSAIQKHPERFKGFASISPYDVKEGVKELERAISQLGFVGWLTHSNFGQDNYLDDKIYWPLLEAAESLNIPIYLHPNVPIMREFGKYGFALGGSALGFEFDTALCLMRMILGGVFDAFPKLKIMLGHLGETMPFLMERLDHLYRIPDLKPYRPSIQRIPSEVLRQNVYITTSGRFFVPALRYVLEVMGEDRVLFASDYPMESLLDATRFIQDSDLSNQTKQKIFSINAKNLNLI
Low

Answer with the recorded Dicamba Decarboxylase Activity for the molecule listed here: 102 (protein, listed as Lactobacillus plantarum) MATKTFKTLDDFLGTHFIYTYDNGWEYEWYAKNDHTVDYRIHGGMVAGRWVTDQKADIVMLTEGIYKISWTEPTGTDVALDFMPNEKKLHGTIFFPKWVEEHPEITVTYQNEHIDLMEQSREKYATYPKLVVPEFANITYMGDAGQNNEDVISEAPYKEMPNDIRNGKYFDQNYHRLNK
No

Answer with the recorded Dicamba Decarboxylase Activity for the molecule listed here: 101 (protein, listed as Aquifex aeolicus) MAQKIALCITGASGVIYGIKLLQVLEELDFSVDLVISRNAKVVLKEEHSLTFEEVLKGLKNVRIHEENDFTSPLASGSRLVHYRGVYVVPCSTNTLSCIANGINKNLIHRVGEVALKERVPLVLLVREAPYNEIHLENMLKITRMGGVVVPASPAFYHKPQSIDDMINFVVGKLLDVLRIEHNLYKRWRG
No

Every entry's value here was drawn from patent US20160053277A1.
